- Experimental protocol: amyloid nucleation score (Sup35N fusion, yeast selection) (log enrichment); library NNK1; higher = more nucleation; inactive = no reads after selection;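 note: zero at mode of non-aggregating sequences after 7 days selection at 30°C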
Quick reference for amyloid nucleation score among some substances
Form: value (number only, do not type unit).

A selection of reference data follows.
Substance	Observed result
CVDCALQFLGCRVGALLTRG	-0.875
SRKVLTPVSPVSVRAARVGH	-0.979
LFFHSKYMQRLKL	0.183
MGLSLPSFW	-0.516
IFSNQSATLGLSVSSWIYLE	-0.983

Request: Entry under review: VCVQILAASTWM . Reported amyloid nucleation score?
Result: 0.844

Request: Would you mind doing IMYNCRYWSGVTLHYSVVQH as well?
Result: 1.89

Request: Would you mind doing NGVLYFD as well?
Result: 0.371

Request: Would you mind doing TPLKEHLLNVVRMLGKIDCD as well?
Result: 0.177

----------
- Experimental protocol: amyloid nucleation score (Sup35N fusion, yeast selection) (log enrichment); library NNK3; higher = more nucleation; inactive = no reads after selection
Endpoint name: amyloid nucleation score

A selection of reference data follows.
Substance	Observed result
MNFMLTLFLWGM	inactive
ASLTGNFYTGWRFLALATMC	inactive
ETVGAPRSLYYST	inactive
TVTVPG	inactive

Request: Entry under review: YLVVHW . Reported amyloid nucleation score?
Result: inactive

Request: Would you mind doing CFKPILDLGSKCLFVLVVGK as well?
Result: inactive

Request: Would you mind doing GVLRLVISEHDLDETFVFMT as well?
Result: 0.189

Request: Would you mind doing FCEMHYRLDN as well?
Result: 0.424

Request: Would you mind doing FFMPFRNLIHKLVTTEELYR as well?
Result: inactive

----------
- Experimental protocol: amyloid nucleation score (Sup35N fusion, yeast selection) (log enrichment); library NNK2; higher = more nucleation; inactive = no reads after selection
Quick reference for amyloid nucleation score among some substances
Form: value (number only, do not type unit).

Substance	Observed result
LNCYFGHRDPIFSRMNICDY	-0.469
IDSILICIMHDCIYIEYLRN	4.44
FPTFQSLRDPRHMLFRGNFM	-0.317
SDYVYKFSVAWWVPVSSVVK	0.701
STVWVFRYYNNYWYDQRTLP	6.81
TRVAYRI	0.219
WTMMYCTNACYDRYICNYRA	-0.038
SMNFRTTSSHSDILYPALC	0.24

Request: Entry under review: TFPMEFLPF . Reported amyloid nucleation score?
Result: -1.12

Request: Would you mind doing GTFKDGMDSA as well?
Result: 3.75

Request: Would you mind doing IRGYYYGMRYSDWGSC as well?
Result: -0.06

Request: Would you mind doing PWVNRCKELCMFVLGVDRGG as well?
Result: -0.588

Request: Would you mind doing VYGPTVNFK as well?
Result: 0.761

Request: Would you mind doing LGSLDSVFNSFHRAGS as well?
Result: -0.518

----------
- Experimental protocol: amyloid nucleation score (Sup35N fusion, yeast selection) (log enrichment); library NNK2; higher = more nucleation; inactive = no reads after selection
Endpoint name: amyloid nucleation score

Substance	Observed result
PCHFVCDCTRMASTTVIHV	0.01
DLSSALRAMRSYSHLSTVGI	inactive
GNIMSFSFMPDLGISFCPGC	6.51
CIEMFFETVFTKGLSRYACW	-0.55
METAPTLNINVSDSQRPNVW	0.71
LVFRGAVCDITRAG	-0.682

Request: Entry under review: VTYWFLLHNIRRLPRYIWLR . Reported amyloid nucleation score?
Result: -0.664

Request: Would you mind doing VMNHWCNVWSFPWTMVRTHQ as well?
Result: 0.352

Request: Would you mind doing AYCCINLHYNLKVS as well?
Result: 0.665
